Here, compounds appear alongside pKi reported for Carbonic anhydrase 9 (Homo sapiens) in the literature.
pKi: −log10 of the molar value.
Please use yes (1) whenever pKi is not below 6, and no (0) whenever it is.

Reference set, count: 3
{"columns": ["COMPOUND", "LABEL"],
 "data": [
  ["CCOC(=O)[C@@H]1C[C@@H]1Cc1c(Br)c(Br)c(OC)c(OC)c1Br", "no (0)"],
  ["O=C(O)c1cc(O)ccc1O", "no (0)"],
  ["CNc1ccc2oc(=O)c3c(C)nn(-c4ccccc4)c3c2c1", "yes (1)"]
]}

Exam item: decide whether the reported pKi for "CCOC(=O)c1nn(-c2ccc(S(N)(=O)=O)cc2)c2nc3nc(-c4cccs4)cc(-c4ccc(Cl)cc4)c3c(=O)n12" is at least 6. yes (1)

Exam item: decide whether the reported pKi for NS(=O)(=O)c1ccc(N2C(=O)CSC2c2cccc(F)c2)cc1 (stereo unspecified) is at least 6. yes (1)

Exam item: decide whether the reported pKi for "NS(=O)(=O)c1cc(NC(=O)NOCc2ccccc2)c(Cl)cc1Cl" is at least 6. yes (1)

Exam item: decide whether the reported pKi for "CCCCn1cc(-c2cc(C(=O)O)[nH]n2)c2ccccc21" is at least 6. no (0)

Exam item: decide whether the reported pKi for "CC(=O)c1cc2cc([N+](=O)[O-])ccc2oc1=O" is at least 6. yes (1)

Exam item: decide whether the reported pKi for "CC1=NN(c2ccccc2)C(=O)/C1=N/Nc1cccc(S(N)(=O)=O)c1" is at least 6. yes (1)

Exam item: decide whether the reported pKi for "NS(=O)(=O)c1ccc(-n2ncc(C(=O)N/N=C3\C(=O)Nc4ccc(Cl)cc43)c2-c2ccccc2)cc1" is at least 6. yes (1)
